study.target: mTOR (Homo sapiens, UniProt P42345)
Construct: FLAG; made in house
Sequence (P42345 1362-2549): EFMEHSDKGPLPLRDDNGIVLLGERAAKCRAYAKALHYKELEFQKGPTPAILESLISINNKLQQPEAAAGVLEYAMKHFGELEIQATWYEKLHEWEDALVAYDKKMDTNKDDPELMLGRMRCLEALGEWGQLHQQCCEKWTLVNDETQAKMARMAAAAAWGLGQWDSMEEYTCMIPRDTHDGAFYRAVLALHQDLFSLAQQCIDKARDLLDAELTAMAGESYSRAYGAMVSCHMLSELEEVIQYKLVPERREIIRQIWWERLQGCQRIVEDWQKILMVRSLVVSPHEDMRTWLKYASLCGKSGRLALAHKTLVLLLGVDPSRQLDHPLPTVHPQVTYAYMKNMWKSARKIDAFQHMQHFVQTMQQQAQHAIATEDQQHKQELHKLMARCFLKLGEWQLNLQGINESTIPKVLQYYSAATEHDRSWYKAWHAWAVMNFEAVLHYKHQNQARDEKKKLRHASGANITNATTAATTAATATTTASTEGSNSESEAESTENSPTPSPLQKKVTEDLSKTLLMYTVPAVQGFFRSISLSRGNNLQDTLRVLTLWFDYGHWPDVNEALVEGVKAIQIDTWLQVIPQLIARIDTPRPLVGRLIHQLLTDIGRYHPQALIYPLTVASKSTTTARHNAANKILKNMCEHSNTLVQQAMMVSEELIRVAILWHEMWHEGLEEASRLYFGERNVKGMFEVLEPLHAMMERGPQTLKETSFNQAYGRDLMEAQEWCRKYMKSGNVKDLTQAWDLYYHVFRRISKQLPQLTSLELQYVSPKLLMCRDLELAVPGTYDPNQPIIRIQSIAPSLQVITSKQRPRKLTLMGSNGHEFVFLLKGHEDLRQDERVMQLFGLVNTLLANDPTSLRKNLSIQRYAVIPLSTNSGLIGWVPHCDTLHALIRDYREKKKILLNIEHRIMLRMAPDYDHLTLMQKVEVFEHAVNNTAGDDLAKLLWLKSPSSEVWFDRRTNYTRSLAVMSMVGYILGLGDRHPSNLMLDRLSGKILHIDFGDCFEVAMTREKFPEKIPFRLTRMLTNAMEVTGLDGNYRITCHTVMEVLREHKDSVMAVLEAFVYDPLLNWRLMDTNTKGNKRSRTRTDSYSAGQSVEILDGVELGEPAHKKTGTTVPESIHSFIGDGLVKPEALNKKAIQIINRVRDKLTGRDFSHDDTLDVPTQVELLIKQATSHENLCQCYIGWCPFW
method: In Vitro mTOR Kinase Assay (Echo), Test (a)(ii)
Format: biochemical
test.context: table of enzyme assay Test (a)(ii); read-out: Test (a)(ii) IC50
pIC50: −log10 of the molar value.
readout.name: pIC50

Please review the following examples before continuing.
Cc1ccccc1S(=O)(=O)C1(c2cc(N3CCOC[C@@H]3C)nc(-c3ccc(NC(=O)Nc4cnn(C)c4)cc3)n2)CC1 [Example 54f] ... 7.97
Cc1ccc(F)cc1S(=O)(=O)C1(c2cc(N3CCOC[C@@H]3C)nc(-c3ccc(NC(=O)NCCO)cc3)n2)CC1 [Example 61b] ... 7.87
C[C@H]1COCCN1c1cc(C2(S(=O)(=O)c3ccc(F)c(Cl)c3)CC2)nc(-c2ccc(NC(=O)NC3CC3)cc2)n1 [Example 95b] ... 7.72

(A) Cc1csc(S(=O)(=O)C2(c3cc(N4CCOC[C@@H]4C)nc(-c4ccc(NC(=O)NCCCO)cc4)n3)CCC2)n1 [Example 98d]
(B) C[C@H]1COCCN1c1cc(C2(S(=O)(=O)CCCO)CC2)nc(-c2ccc(NC(=O)NCc3ncc[nH]3)cc2)n1 [Example 36c]
Between A and B , which one has the lower reported pIC50 value? Please respond with the label that marks your chosen entry. B

(I) C[C@H]1COCCN1c1cc(C2(S(=O)(=O)CCCOC(F)F)CC2)nc(-c2ccc(NC(=O)NC3CC3)cc2)n1 [Example 96e]
(II) CCNC(=O)Nc1ccc(-c2nc(N3CCOC[C@@H]3C)cc(C3(S(=O)(=O)CCC(C)(C)O)CC3)n2)cc1 [Example 79f]
Name the one with the greater pIC50 value, either I or II as given. Answer format: the label of the selected item. I
(I: 8.06, II: 7.40)

---

study.target: mTOR (Homo sapiens)
Construct: FLAG; made in house
method: In Vitro mTOR Kinase Assay (Echo), Test (a)(ii)
Assay type: biochemical
test.context: table of enzyme assay Test (a)(ii); read-out: Test (a)(ii) IC50
readout.name: IC50 (µM)

A selection of reference data follows.
CC(C)CNC(=O)Nc1ccc(-c2nc(N3CCOC[C@@H]3C)cc(C3(S(=O)(=O)C(C)(C)C)CC3)n2)cc1 [Example 18c] ... 0.032
O=C(NCCO)Nc1ccc(-c2nc(N3CCOCC3)cc(C3(C(=O)NC4CC4)CC3)n2)cc1 [Example 34b] ... 0.0109
C[C@H]1COCCN1c1cc(C2(S(=O)(=O)c3ccc(C#N)cc3)CC2)nc(-c2ccc(NC(=O)NCCO)cc2)n1 [Example 77c] ... 0.00437

(a) Cc1nn(C(F)F)c(C)c1S(=O)(=O)C1(c2cc(N3CCOC[C@@H]3C)nc(-c3ccc(NC(=O)NCC(F)F)cc3)n2)CC1 [Example 75d]
(b) C[C@H]1COCCN1c1cc(C2(S(=O)(=O)C3CC3)CC2)nc(-c2ccc(NC(=O)NCc3ncc[nH]3)cc2)n1 [Example 64v]
(c) Cc1csc(S(=O)(=O)C2(c3cc(N4CCOC[C@@H]4C)nc(-c4ccc(NC(=O)Nc5cnn(C)c5)cc4)n3)CC2)n1 [Example 25m]
Put these in order: smallest IC50 first, largest last. To answer, write out the labels according to the requested order. c, a, b
(c: 0.00025 µM, a: 0.0399 µM, b: 0.146 µM)
